Provide the reported self-cleavage of each item.
B1: LINE1-mini (parent)
chain: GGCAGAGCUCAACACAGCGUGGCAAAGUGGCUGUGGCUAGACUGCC

Variants of: B1
assay details: self-cleavage, relative activity (ratio to wild type); higher = more cleavage; in vitro, sequencing; the parent is a self-cleaving ribozyme
Respond using a number only.

I am curious: what self-cleavage value has been reported for G5C A11U ?
0.03

Now try U20G A26U .
0.3

Now try U9G C31U .
0.03

Now try C3A G29C .
0.25

Now try A6G C23G .
0.1

Now try C37A C42A .
0.05

Now try C42G C45U .
0.05

Now try G44C C45G .
0.21

Now try A12C G19U .
0.03

Now try U28A G44C .
0.62

Now try A26C G44U .
0.28

Now try G2U A24C .
0.07

Now try A14C G44U .
0.07

Now try A4G G7C .
0.15

Now try G21C A41C .
0.07

Now try A25C C46U .
0.56

Now try A14C A41G .
0.05

Now try G7U G30U .
0.1

Now try G27A G44A .
0.34

Now try G35A G40U .
0.05

Now try U28C G44U .
0.34

Now try G33C G44A .
0.03

Now try A4G A24C .
0.25

Now try U9G C23G .
0.15

Now try U20G C45U .
1.62

Now try A26C U38C .
0.83

Now try C8A U9C .
0.14

Now try A11G A25C .
0.03

Now try G17C C18A .
0.1

Now try G2U G21U .
0.14

Now try A4G G22C .
0.91

Now try G1A G5A .
0.2
